Tested on: IGROV1 ovarian
Assay: NCI tumour cell line growth inhibition, 48 h
Reported TGI values for a set of compounds
Recorded endpoint: TGI (µM)

• Cc1cc(I)cc(CN(C)CCCCN2CCCCC2)c1O = 41
• COc1ccc(-c2nc3sccn3c2/C(N)=N/C(=N)N)cc1OC = 7.11
• CCC(CO)Nc1nc2ccc(Cl)cc2c2ccccc12 (stereo unspecified) = 23.5
• CCC12C=CCN3CCC4(C(=C(C(=O)OC)[C@@H]1O)Nc1ccccc14)C32 (stereo partly specified) = 3.9

* * *

Entries and their measured TGI follow.
Tested on: OVCAR-8 ovarian
Assay: NCI tumour cell line growth inhibition, 48 h
Recorded endpoint: TGI (µM)

• C=C1C(=O)C23CC1CCC2C12CO[C@@H]4OCC(C)(CC[C@@H]1OC3=O)C42 (stereo partly specified) = 9.78
• COc1cc(/C=N/NC(=O)c2ccc(C(F)(F)F)nc2Nc2ccc(Cl)cc2C)ccc1O = 13.5
• CCOC(=O)CN1C(=O)c2cccc3cc([N+](=O)[O-])cc(c23)C1=O = 3.43
• CC(C)=CC(=O)C1c2cccc(O)c2C(=O)c2c(O)cc(C)cc21 (stereo unspecified) = 7.58

* * *

Tested on: TK-10 renal
Test: NCI tumour cell line growth inhibition, 48 h; in the data active = GI50 below about 0.43 µM; inactive = the rest
Where a SMILES comes first, the peptide text is derived from it. [ ]: non-standard residue; d: D form. The star is where a group is joined. ξ: configuration not given here. X6 = FC(F)(F)c1cc(NC(=S)*)cc(C(F)(F)F)c1; ξF = NC(Cc1ccccc1)C(=O)O
Outcomes: yes = active, no = inactive

• OCc1ccc(N2CCC2c2ccc(F)cc2)cc1Cl (stereo unspecified) = yes
• COc1cc(/C=N/NC(=O)c2ccc(C(F)(F)F)nc2Nc2ccc(Cl)cc2C)ccc1O = no
• Clc1ccc2c(NCCCCNc3nc(N4CCCCC4)nc4ccccc34)ccnc2c1 = no
• Cn1cc(C2=C(c3cn(C)c4ncccc34)C(=O)NC2=O)c2ccccc21 = no
• COC(=O)[C@@H](NC(=O)CNC(=O)[C@H]1CCCN1C(=O)C(Cc1ccccc1)NC(=S)Nc1cc(C(F)(F)F)cc(C(F)(F)F)c1)C(C)C (stereo partly specified) (X6-[ξF][dP]GV-OMe) = no
• C=C(CN1CCN(c2ccc(Cl)cc2F)CC1)c1ccc(C(=O)Nc2ccccc2N)cc1 = no
• CCC(CO)Nc1nc2ccc(Cl)cc2c2ccccc12 (stereo unspecified) = no
• O=C1/C(=C/c2cccc([N+](=O)[O-])c2)COc2ccc(O)cc21 = no
• Cc1nc2ccccc2c(N)c1-c1cc(C)c2c(C)nc3ccccc3c2n1 = no
• COc1cc(Cc2cnc(/N=C3\C(=O)N(CN4CCN(c5c(F)cc6c(=O)c(C(=O)O)cn(C7CC7)c6c5OC)CC4C)c4ccc(F)cc43)nc2N)cc(OC)c1OC (stereo unspecified) = no
• CC(C)CCC[C@@H](C)[C@H]1CC[C@H]2[C@@H]3CC=C4C[C@@H](C(C(=O)O)C(=O)O)CC[C@]4(C)[C@H]3CC[C@]12C = yes

* * *

Tested on: COLO 205 colon
Assay: NCI tumour cell line growth inhibition, 48 h
Recorded endpoint: TGI

• CC(C)C1/C(=N/O)CC(c2ccccc2)N(N=O)C1c1ccccc1 (stereo not given) = 31 µM
• C=C1c2nc3ccccc3n2C=C(c2ccccc2)N1c1ccc([N+](=O)[O-])cc1 = 48.4 µM
• CCOc1ccc(NC(=O)C(=O)CC(=O)c2c[n+](=O)c3cc(C)c(C)cc3n2[O-])cc1 = > 100 µM
• Oc1cccc2c(Cl)ccnc12 = 32.6 µM
• O=C1C(=Cc2ccc(O)cc2)N=C(c2ccccc2)N1n1c(-c2ccccc2)nc2ccccc2c1=O = > 100 µM

The measured values listed here are drawn from PubChem BioAssay (NCI).
